// data source = paper PMC9692247

testedTarget: recombinant zfHDAC6 (HDAC6 CD2) (Danio rerio, UniProt F8W4B7)
Construct: HDAC6 from Danio rerio (zebrafish; catalytic domain 2, S440-R798); His-SUMO (N, cleaved yes)
method: Fluorescence polarization (FP) competition assay with FITC-M344
conditionNotes: 300 nM HDAC6 CD2, 50 nM FITC-M344; read-out: Fluorescence polarization IC50 against zfHDAC6
valueType: IC50 (nM)
Expressed in nM, but write only the number.

Query: I would be grateful if you could share the reported IC50 for O=C(CCCCCCNC(=O)c1cnc(N(c2ccccc2)c2ccccc2Cl)nc1)NO [Citarinostat, citarinostat] .
Reply: 90.2

More entries:
Query: Could you share which IC50 value was measured for CC(C)N(Cc1ccc(C(=O)NO)cc1F)S(=O)(=O)c1cc(F)c(F)c(F)c1F [NN-429] ?
Reply: 28.8
